Test system: acetic acid writhing syndrome
TEST_NAME: Analgetic effect (acetic acid writhing, mouse)
Type: in vivo, dd-strain male mice
CONDITION_DESCRIPTION: oral, read-out: analgetic effect ED50 (95% C.L.)
Response field label: string, one of true (1) (ED50 strictly below 3 mg/kg) or false (0).

Solved entries:
[
  {
    "MOLECULE": "O=c1c2ccccc2n(-c2cccc([N+](=O)[O-])c2)c(=O)n1CCO [Compound 13]",
    "MEASURED_ON": "acetic acid writhing syndrome",
    "CLASS_NAME": "true (1)"
  },
  {
    "MOLECULE": "O=c1c2ccccc2n(-c2cccc(C(F)(F)F)c2)c(=O)n1CCO [R1=drawing 18, R2=CH2 CH2 OH, reference compound]",
    "MEASURED_ON": "acetic acid writhing syndrome",
    "CLASS_NAME": "false (0)"
  },
  {
    "MOLECULE": "CC(=O)OCCn1c(=O)c2ccccc2n(-c2cccc([N+](=O)[O-])c2)c1=O [Compound 18]",
    "MEASURED_ON": "acetic acid writhing syndrome",
    "CLASS_NAME": "true (1)"
  },
  {
    "MOLECULE": "O=c1c2ccccc2n(-c2cccc([N+](=O)[O-])c2)c(=O)n1CCOCCO [Compound 17]",
    "MEASURED_ON": "acetic acid writhing syndrome",
    "CLASS_NAME": "false (0)"
  },
  {
    "MOLECULE": "CCn1c(=O)c2ccccc2n(-c2cccc([N+](=O)[O-])c2)c1=S [Compound 24]",
    "MEASURED_ON": "acetic acid writhing syndrome",
    "CLASS_NAME": "false (0)"
  },
  {
    "MOLECULE": "CCn1c(=O)c2ccccc2n(-c2cccc(C(F)(F)F)c2)c1=O [R1=drawing 18, R2=C2 H5, reference compound]",
    "MEASURED_ON": "acetic acid writhing syndrome",
    "CLASS_NAME": "false (0)"
  },
  {
    "MOLECULE": "CCn1c(=O)c2ccccc2n(-c2cccc([N+](=O)[O-])c2)c1=O [Compound 3]",
    "MEASURED_ON": "acetic acid writhing syndrome",
    "CLASS_NAME": "false (0)"
  },
  {
    "MOLECULE": "CCCn1c(=O)c2ccccc2n(-c2cccc([N+](=O)[O-])c2)c1=O [Compound 4]",
    "MEASURED_ON": "acetic acid writhing syndrome",
    "CLASS_NAME": "false (0)"
  }
]

Attention now turns to another entry.
[ask] Lab note: confirm whether the reported ED50 for this molecule is below 3 mg/kg, equality not counting. molecule: C=CCn1c(=O)c2ccccc2n(-c2cccc([N+](=O)[O-])c2)c1=O [Compound 6]
[reply] false (0)

====

System: dd-strain male mice
Type: in vivo
CONDITION_DESCRIPTION: i.p., mouse, 72 hours
Known acute toxicity (lethal dose) of a selection of molecules

Recorded results for 8 molecules are shown here.
[
  {
    "MOLECULE": "O=c1c2ccccc2n(-c2cccc([N+](=O)[O-])c2)c(=O)n1CCOCCO",
    "MEASURED_ON": "dd-strain male mice",
    "acute toxicity (lethal dose)": "1000 mg/kg"
  },
  {
    "MOLECULE": "Cn1c(=O)c2ccccc2n(-c2cccc([N+](=O)[O-])c2)c1=S",
    "MEASURED_ON": "dd-strain male mice",
    "acute toxicity (lethal dose)": "> 1000 mg/kg"
  },
  {
    "MOLECULE": "O=c1c2ccccc2n(-c2cccc([N+](=O)[O-])c2)c(=O)n1CCCl",
    "MEASURED_ON": "dd-strain male mice",
    "acute toxicity (lethal dose)": "> 1000 mg/kg"
  },
  {
    "MOLECULE": "CC(=O)OCCn1c(=O)c2ccccc2n(-c2cccc([N+](=O)[O-])c2)c1=O",
    "MEASURED_ON": "dd-strain male mice",
    "acute toxicity (lethal dose)": "> 1000 mg/kg"
  },
  {
    "MOLECULE": "CCn1c(=O)c2ccccc2n(-c2cccc(C(F)(F)F)c2)c1=O [R1=drawing 18, R2=C2 H5, reference compound]",
    "MEASURED_ON": "dd-strain male mice",
    "acute toxicity (lethal dose)": "456 mg/kg"
  },
  {
    "MOLECULE": "C#CCn1c(=O)c2ccccc2n(-c2cccc([N+](=O)[O-])c2)c1=O",
    "MEASURED_ON": "dd-strain male mice",
    "acute toxicity (lethal dose)": "> 1000 mg/kg"
  },
  {
    "MOLECULE": "O=c1c2ccccc2n(-c2cccc(C(F)(F)F)c2)c(=O)n1CCO [R1=drawing 18, R2=CH2 CH2 OH, reference compound]",
    "MEASURED_ON": "dd-strain male mice",
    "acute toxicity (lethal dose)": "200 mg/kg"
  },
  {
    "MOLECULE": "O=c1c2ccccc2n(-c2cccc([N+](=O)[O-])c2)c(=S)n1CC(F)(F)F",
    "MEASURED_ON": "dd-strain male mice",
    "acute toxicity (lethal dose)": "> 1000 mg/kg"
  }
]

Given item `Cn1c(=O)c2ccccc2n(-c2cccc([N+](=O)[O-])c2)c1=O` , the value recorded as its acute toxicity (lethal dose) is > 1000 mg/kg

Reference source: patent US4016166A
